study target: rGmolPBP1 (Grapholita molesta, UniProt A0A2R4SBD6)
Sequence (A0A2R4SBD6 entry or part of it): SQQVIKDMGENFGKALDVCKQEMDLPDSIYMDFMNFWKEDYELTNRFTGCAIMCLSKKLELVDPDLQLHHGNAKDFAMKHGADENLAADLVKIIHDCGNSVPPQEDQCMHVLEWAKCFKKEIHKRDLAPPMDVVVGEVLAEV
measure: pKi
Answers are plain numbers, as −log10 of the molar value.

q: // fetch rGmolPBP1 (Grapholita molesta, UniProt A0A2R4SBD6) pKi for CCCCC/C=C\CCCCCCCOC(C)=O [Z8-14:Ac, (Z)-8-tetradecenyl acetate]
a: 5.78

* * *

study target: rGmolGOBP2 (Grapholita molesta)
Sequence (H9XTU6 entry or part of it): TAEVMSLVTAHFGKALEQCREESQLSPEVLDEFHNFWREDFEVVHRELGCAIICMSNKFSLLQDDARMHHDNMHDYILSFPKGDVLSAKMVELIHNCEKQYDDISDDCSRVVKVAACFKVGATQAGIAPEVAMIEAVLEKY
experimental details: Fluorescence competitive binding assay with 1-NPN probe
condition notes: 2 μM protein, 2 μM 1-NPN, pH 7.4; read-out: IC50 (displacement of 1-NPN)
measure: IC50 (µM)
Numbers only, in µM.

q: What does the data say about its IC50? Entry: CCCCC/C=C\CCCCCCCOC(C)=O [Z8-14:Ac, (Z)-8-tetradecenyl acetate]
a: 3.53

meta.source: paper PMC11678869
